Provenance of the data: patent US9976183B2

- Test system: NCI/ADR-RES
- assay_summary: Drug sensitivity, MTS assay, drug resistant cell line
- Assay type: cell-based
- recorded_conditions: Homo sapiens, multi-drug resistant uterine sarcoma
Could you please report measured GI50 for the items listed next?
Quick note: unit goes after the number.

Inquiry: Provide value of GI50 for this record tested with NCI/ADR-RES: COCCOc1cnc(Sc2cc(C)c(-c3csc(NC(=O)c4ccncc4)n3)c(C)c2)cn1
Reply text: 0.0195 µM

Inquiry: Provide value of GI50 for this record tested with NCI/ADR-RES: COc1ccc(Oc2cc(C)c(-c3csc(NC(=O)c4ccnc(F)c4)n3)c(C)c2)cc1
Reply text: 0.0216 µM

Inquiry: Provide value of GI50 for this record tested with NCI/ADR-RES: COc1ccc(Oc2cc(C)c(-c3csc(NC(=O)c4ccncc4)n3)c(C)c2)cc1
Reply text: 0.0286 µM

Inquiry: Provide value of GI50 for this record tested with NCI/ADR-RES: CC(=O)O[C@H]1C(=O)[C@@]2(C)[C@H]([C@H](OC(=O)c3ccccc3)[C@]3(O)C[C@H](OC(=O)[C@H](O)[C@@H](NC(=O)c4ccccc4)c4ccccc4)C(C)=C1C3(C)C)[C@]1(OC(C)=O)CO[C@@H]1C[C@@H]2O
Reply text: 2.33 µM

----------
Could you please report measured GI50 for the items listed next?
- Test system: Hs578T
- assay_summary: Drug sensitivity, MTS cell viability assay (GI50)
- Assay type: cell-based
- recorded_conditions: Homo sapiens, Hs-578T, 96 hours
Quick note: unit goes after the number.

Inquiry: What does the record list as GI50 for CC[C@@]1(O)C(=O)OCc2c1cc1n(c2=O)Cc2cc3c(CN(C)C)c(O)ccc3nc2-1 ?
Reply text: 4960 nM

Inquiry: What does the record list as GI50 for CC(=O)O[C@H]1C(=O)[C@@]2(C)[C@H]([C@H](OC(=O)c3ccccc3)[C@]3(O)C[C@H](OC(=O)[C@H](O)[C@@H](NC(=O)c4ccccc4)c4ccccc4)C(C)=C1C3(C)C)[C@]1(OC(C)=O)CO[C@@H]1C[C@@H]2O ?
Reply text: 8.39 nM

Inquiry: What does the record list as GI50 for COc1cccc2c1C(=O)c1c(O)c3c(c(O)c1C2=O)C[C@@](O)(C(=O)CO)C[C@@H]3O[C@H]1C[C@H](N)[C@H](O)[C@H](C)O1 ?
Reply text: 711 nM

Inquiry: What does the record list as GI50 for COc1ccc(Oc2cc(C)c(-c3csc(NC(=O)c4ccncc4)n3)c(C)c2)cc1 ?
Reply text: 143 nM

----------
- System: HepG2
- assay_summary: Drug sensitivity, MTS cell viability assay (GI50)
- Assay type: cell-based
- recorded_conditions: Homo sapiens; HepG2, 96 hours, MTS
measured_parameter: GI50 (nM)
Expressed in nM, but write only the number.

Inquiry: What does the record list as GI50 for CNC(=O)c1cc(Oc2ccc(NC(=O)Nc3ccc(Cl)c(C(F)(F)F)c3)cc2)ccn1 ?
Reply text: 8250

Inquiry: What does the record list as GI50 for COc1ccc(Oc2cc(C)c(-c3csc(NC(=O)c4ccncc4)n3)c(C)c2)cc1 ?
Reply text: 273

Inquiry: What does the record list as GI50 for COc1cccc2c1C(=O)c1c(O)c3c(c(O)c1C2=O)C[C@@](O)(C(=O)CO)C[C@@H]3O[C@H]1C[C@H](N)[C@H](O)[C@H](C)O1 ?
Reply text: 746

Inquiry: What does the record list as GI50 for CC[C@@]1(O)C(=O)OCc2c1cc1n(c2=O)Cc2cc3c(CN(C)C)c(O)ccc3nc2-1 ?
Reply text: 435
